pIC50: −log10 of the molar value.
Recorded pIC50 values (Reverse transcriptase (Human immunodeficiency virus 2, UniProt Q06347)) are given below.
Reported endpoint: pIC50

compound="CCCC(=O)Oc1ccc(C(C)(C)C)cc1Br [NCI Code, 6927]" endpoint_result=3.48
compound="Cc1ccnc2c1NC(=O)c1cccnc1N2C1CC1 [BI-RG-587]" endpoint_result=5.38
compound="CCCCCCc1nc2c([nH]1)c(=O)n(C)c(=O)n2C [NCI Code, 14129]" endpoint_result=4.72
compound="Cc1ccc(S(=O)(=O)Oc2ccc(Cl)cc2Cl)cc1 [NCI Code, 4179]" endpoint_result=4.06
